Assay: RSV NHBE CC50 384 V2 (per Ex. U)
Format: cell-based
Details: human
CC50 at 3 days overview
Form entry: value (µM) — number only.

Record excerpt, results attached:
molecule	CC50 at 3 days, µM
CCCCCCCCCCCCCCCCCCOC[C@@H](COP(=O)(O)OC[C@@]1(C#N)O[C@@H](c2ccc3c(N)ncnn23)[C@H](O)[C@@H]1O)Oc1ccc(C#N)nc1	1.61
CCCCCCCCCCCCCCCCCCOCC(COc1cc(F)cc(C#N)c1)COP(=O)(O)OC[C@@]1(C#N)O[C@@H](c2ccc3c(N)ncnn23)[C@H](O)[C@@H]1O (some centres unmarked)	11.9
CCCCCCCCCCCCCCCCCCC[C@H](COP(=O)(O)OC[C@@]1(C#N)O[C@@H](c2ccc3c(N)ncnn23)[C@H](O)[C@@H]1O)OCc1cc(F)cc(C#N)c1	31
CCCCCCCCCCCCCCCCCCC[C@H](COP(=O)(O)OC[C@@]1(C#N)O[C@@H](c2ccc3c(N)ncnn23)[C@H](O)[C@@H]1O)Oc1ccc(C#N)c(F)c1	1.44

Please find the next molecule below.
Any idea what CC50 at 3 days was measured for CCCCCCCCCCCCCCCCCCOC[C@H](COP(=O)(O)OC[C@@]1(C#N)O[C@@H](c2ccc3c(N)ncnn23)[C@H](O)[C@@H]1O)OCc1ccc(C#N)c(-n2cncn2)c1 ?
4.61

----------
Assay: in vitro
Type: cell-based
Conditions: human
readout_kind: CC50

Record excerpt, results attached:
>>> print(df.to_string())
                              smiles_record  readout_kind  observed_measurement
0  CCCCCCCCCCCCCCCCCCC[C@H](COP(=O)(O)OC[C@@]1(C#N)O[C@@H](c2ccc3c(N)ncnn23)[C@H](O)[C@@H]1O)Oc1ccc(C#N)c(OC(C)C)c1          CC50                5.8 µM
1  CCCCCCCCCCCCCCCCCCOC[C@H](COP(=O)(O)OC[C@@]1(C#N)O[C@@H](c2ccc3c(N)ncnn23)[C@H](O)[C@@H]1O)OCc1ccc(C#N)cc1OC          CC50                 19 µM
2  CCCCCCCCCCCCCCCCCCC[C@H](COP(=O)(O)OC[C@@]1(C#N)O[C@@H](c2ccc3c(N)ncnn23)[C@H](O)[C@@H]1O)OCc1ccc(-n2cncn2)c(C#N)c1          CC50                5.9 µM
3  CCCCCCCCCCCCCCCCCCOC[C@H](COP(=O)(O)OC[C@@]1(C#N)O[C@@H](c2ccc3c(N)ncnn23)[C@H](O)[C@@H]1O)OCc1cc(F)cc(C#N)c1          CC50                 18 µM

Any idea what CC50 was measured for CCCCCCCCCCCCCCCCCCCC[C@H](COP(=O)(O)OC[C@@]1(C#N)O[C@@H](c2ccc3c(N)ncnn23)[C@H](O)[C@@H]1O)OCc1cc(F)cc(C#N)c1 ?
15 µM

Any idea what CC50 was measured for CCCCCCCCCCCCCCCCCCOC[C@H](COP(=O)(O)OC[C@@]1(C#N)O[C@@H](c2ccc3c(N)ncnn23)[C@H](O)[C@@H]1O)Oc1ccc(C#N)c(OC(C)C)c1 ?
26 µM

Any idea what CC50 was measured for CCCCCCCCCCCCCCOC[C@H](COP(=O)(O)OC[C@@]1(C#N)O[C@@H](c2ccc3c(N)ncnn23)[C@H](O)[C@@H]1O)Oc1ccc(C#N)cn1 ?
> 50 µM
